Hey, just so you know, these numbers are from paper doi:10.1101/2019.12.18.881771.

Target: T1, GIT1 GAP-ANK-SHD (GAS) tandem (mouse, UniProt Q68FF6 1-371)
T1 sequence (looked up): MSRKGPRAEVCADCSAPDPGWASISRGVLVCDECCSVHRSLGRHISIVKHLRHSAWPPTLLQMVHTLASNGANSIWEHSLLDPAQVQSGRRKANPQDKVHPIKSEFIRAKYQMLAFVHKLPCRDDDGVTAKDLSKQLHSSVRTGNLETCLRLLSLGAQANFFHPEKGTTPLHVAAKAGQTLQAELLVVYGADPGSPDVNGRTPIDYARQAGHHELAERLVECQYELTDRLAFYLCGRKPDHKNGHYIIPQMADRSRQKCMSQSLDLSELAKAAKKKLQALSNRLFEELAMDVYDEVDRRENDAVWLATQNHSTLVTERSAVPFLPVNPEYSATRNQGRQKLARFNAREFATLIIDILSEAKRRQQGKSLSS
Experiment: fluorescence polarisation
No end group written: not given here. *: point of attachment. FITC = O=C1OC2(c3ccc(O)cc3Oc3cc(O)ccc32)c2ccc(NC(=S)*)cc21
measuredQuantity: Kd

// sample {FITC}-ALEEDAQILKVIEADCTSAKT (peptide, UniProt Q9ES28-4 633-653, looked up) [FITC-labelled β-Pix GBD Y542D peptide] , its Kd was ~76.4 µM
